Please go through the items and note down their IC50.
Target: AChE (Homo sapiens, UniProt P22303)
Sequence (P22303 32-614): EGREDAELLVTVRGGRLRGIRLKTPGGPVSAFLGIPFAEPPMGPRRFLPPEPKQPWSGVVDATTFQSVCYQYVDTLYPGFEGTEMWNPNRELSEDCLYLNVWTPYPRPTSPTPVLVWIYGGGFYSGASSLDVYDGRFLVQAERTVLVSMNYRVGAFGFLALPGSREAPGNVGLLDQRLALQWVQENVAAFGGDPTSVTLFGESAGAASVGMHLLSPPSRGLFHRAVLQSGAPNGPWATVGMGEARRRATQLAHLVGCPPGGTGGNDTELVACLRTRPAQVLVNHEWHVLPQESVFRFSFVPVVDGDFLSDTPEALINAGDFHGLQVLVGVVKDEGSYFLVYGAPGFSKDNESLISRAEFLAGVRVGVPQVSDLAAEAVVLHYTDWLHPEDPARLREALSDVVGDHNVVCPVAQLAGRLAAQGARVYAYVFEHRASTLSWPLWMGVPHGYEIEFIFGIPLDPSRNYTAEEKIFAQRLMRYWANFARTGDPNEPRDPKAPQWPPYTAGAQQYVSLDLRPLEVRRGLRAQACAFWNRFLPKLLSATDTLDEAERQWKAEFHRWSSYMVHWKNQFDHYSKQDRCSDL
Assay: biochemical
Type: biochemical
Conditions: average ± SEM, triplicate
Answers are plain numbers, in µM.

The cases that follow already have their IC50 on record.
COMPOUND	IC50, µM
FC(F)(F)c1cccc(CSc2nnc(-c3cc(-c4ccccc4)nc4ccccc34)o2)c1 [Compound 6b]	3.54
O=C1c2ccccc2C(=O)N1CCCCCCSc1nnc(-c2cc(-c3ccccc3)nc3ccccc23)o1 [Compound 5f]	3.32

Provide reported IC50 for each item, in the same order as listed.
1. O=C1c2ccccc2C(=O)N1CCCCSc1nnc(-c2cc(-c3ccccc3)nc3ccccc23)o1 [Compound 5d]
2. FC(F)(F)c1ccc(CSc2nnc(-c3cc(-c4ccccc4)nc4ccccc34)o2)cc1 [Compound 6a]
3. O=C1c2ccccc2C(=O)N1CCSc1nnc(-c2cc(-c3ccccc3)nc3ccccc23)o1 [Compound 5b]

[2.38, 3.23, 2.55]

----------
Biological target: MAO-A (Homo sapiens, UniProt P21397)
Sequence (P21397 whole entry, species assumed): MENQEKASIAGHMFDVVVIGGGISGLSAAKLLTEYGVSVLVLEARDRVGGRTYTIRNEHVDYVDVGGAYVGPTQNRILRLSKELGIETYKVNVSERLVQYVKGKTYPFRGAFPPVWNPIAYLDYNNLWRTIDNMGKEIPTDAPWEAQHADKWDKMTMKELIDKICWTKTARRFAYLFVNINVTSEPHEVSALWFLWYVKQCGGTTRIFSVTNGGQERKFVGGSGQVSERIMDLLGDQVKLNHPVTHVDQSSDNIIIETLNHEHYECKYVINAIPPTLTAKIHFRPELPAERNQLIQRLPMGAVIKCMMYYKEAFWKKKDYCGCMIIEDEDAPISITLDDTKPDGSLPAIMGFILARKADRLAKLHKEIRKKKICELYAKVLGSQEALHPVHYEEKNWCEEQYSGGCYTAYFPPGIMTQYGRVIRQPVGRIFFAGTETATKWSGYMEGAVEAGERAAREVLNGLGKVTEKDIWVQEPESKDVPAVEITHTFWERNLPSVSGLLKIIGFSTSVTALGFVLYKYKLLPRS
Assay: Monoamine oxidase A inhibition assay (Amplex red fluorescence)
Format: biochemical
Conditions: average ± SEM, triplicate
API: label(entry) gives met if the entry's IC50 is strictly smaller than 4 µM; on equality or larger values it gives not met.

Consider the worked cases shown below.
COMPOUND	CLASS ASSIGNMENT
O=C1c2ccccc2C(=O)N1CCCCCSc1nnc(-c2cc(-c3ccccc3)nc3ccccc23)o1 [Compound 5e]	not met
O=C1c2ccccc2C(=O)N1CCCCCCSc1nnc(-c2cc(-c3ccccc3)nc3ccccc23)o1 [Compound 5f]	not met
c1ccc(CSc2nnc(-c3cc(-c4ccccc4)nc4ccccc34)o2)cc1 [Compound 6d]	not met

Is 4 µM strictly greater than the compound's reported IC50? compound: O=C1c2ccccc2C(=O)N1CCSc1nnc(-c2cc(-c3ccccc3)nc3ccccc23)o1 [Compound 5b] met

Item O=C1c2ccccc2C(=O)N1CCCSc1nnc(-c2cc(-c3ccccc3)nc3ccccc23)o1 [Compound 5c] : IC50 beneath 4 µM, strictly? met

Given the entry O=C1c2ccccc2C(=O)N1CCCCSc1nnc(-c2cc(-c3ccccc3)nc3ccccc23)o1 [Compound 5d] , would its reported IC50 be below 4 µM? met

Here's an entry: O=C1c2ccccc2C(=O)N1CSc1nnc(-c2cc(-c3ccccc3)nc3ccccc23)o1 [Compound 5a] . Is its IC50 below 4 µM? met

I'd appreciate it if you could check whether FC(F)(F)c1ccccc1CSc1nnc(-c2cc(-c3ccccc3)nc3ccccc23)o1 [Compound 6c] has IC50 smaller than 4 µM. not met

----------
Target: MAO-B (Homo sapiens)
Sequence (P27338 1-520): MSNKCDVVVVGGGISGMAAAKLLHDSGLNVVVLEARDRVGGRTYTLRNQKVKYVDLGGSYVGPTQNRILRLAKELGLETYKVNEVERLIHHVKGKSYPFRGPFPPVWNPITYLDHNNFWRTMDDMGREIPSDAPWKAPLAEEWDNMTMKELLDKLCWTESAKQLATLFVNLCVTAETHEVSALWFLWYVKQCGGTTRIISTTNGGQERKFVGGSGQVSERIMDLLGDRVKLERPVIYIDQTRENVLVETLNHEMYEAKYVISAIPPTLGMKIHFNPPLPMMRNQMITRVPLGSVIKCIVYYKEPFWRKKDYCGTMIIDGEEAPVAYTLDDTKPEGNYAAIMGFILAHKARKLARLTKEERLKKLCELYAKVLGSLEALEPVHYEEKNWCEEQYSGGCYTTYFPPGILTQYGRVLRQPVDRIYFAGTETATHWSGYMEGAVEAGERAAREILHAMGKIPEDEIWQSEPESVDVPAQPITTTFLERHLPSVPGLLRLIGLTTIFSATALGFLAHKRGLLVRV
Please respond with reported pIC50 for every item in the list.
Answers are plain numbers, as −log10 of the molar value.

STRUCTURE STRING	REPORTED VALUE
O=C1c2ccccc2C(=O)N1CCCSc1nnc(-c2cc(-c3ccccc3)nc3ccccc23)o1	5.47

Give measured pIC50 for every item shown.
1. FC(F)(F)c1cccc(CSc2nnc(-c3cc(-c4ccccc4)nc4ccccc34)o2)c1
2. FC(F)(F)c1ccc(CSc2nnc(-c3cc(-c4ccccc4)nc4ccccc34)o2)cc1

5.57
5.43

The following compounds each have a reported value; give each one's pIC50.
1. O=C1c2ccccc2C(=O)N1CCCCSc1nnc(-c2cc(-c3ccccc3)nc3ccccc23)o1
2. FC(F)(F)c1ccccc1CSc1nnc(-c2cc(-c3ccccc3)nc3ccccc23)o1
3. O=C1c2ccccc2C(=O)N1CSc1nnc(-c2cc(-c3ccccc3)nc3ccccc23)o1
4. c1ccc(CSc2nnc(-c3cc(-c4ccccc4)nc4ccccc34)o2)cc1

5.42
5.25
5.80
5.54

List pIC50 for every entry below, keeping the order given.
1. O=C1c2ccccc2C(=O)N1CCCCCCSc1nnc(-c2cc(-c3ccccc3)nc3ccccc23)o1
2. O=C1c2ccccc2C(=O)N1CCCCCSc1nnc(-c2cc(-c3ccccc3)nc3ccccc23)o1
3. O=C1c2ccccc2C(=O)N1CCSc1nnc(-c2cc(-c3ccccc3)nc3ccccc23)o1

1: 6.08; 2: 5.42; 3: 5.58
